Multiple publications report IC50 for UniProt Q96GD4; what follows is a combined list.
Sequence (Q96GD4 whole entry): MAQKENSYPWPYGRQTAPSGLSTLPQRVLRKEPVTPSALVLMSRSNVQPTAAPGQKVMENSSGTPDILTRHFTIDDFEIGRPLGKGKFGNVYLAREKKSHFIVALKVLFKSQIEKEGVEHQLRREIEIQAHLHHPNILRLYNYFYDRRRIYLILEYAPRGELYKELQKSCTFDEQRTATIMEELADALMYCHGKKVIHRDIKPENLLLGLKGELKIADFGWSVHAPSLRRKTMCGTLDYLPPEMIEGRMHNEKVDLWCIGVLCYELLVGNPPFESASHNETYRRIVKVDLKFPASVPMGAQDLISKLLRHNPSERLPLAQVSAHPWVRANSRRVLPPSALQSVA
Give the value, in units of nM, as a plain number.

| Smiles notation | IC50, nM |
| --- | --- |
| Cc1nc(Nc2ccc(CCNc3ncnc4ccsc34)cc2)[nH]c1C | 5600 |
| CCn1cc(-c2ccnc3[nH]c(-c4cccc(CN5CCOCC5)c4)cc23)c(-c2ccc(NC(=O)N(C)C)cc2)n1 | 4.7 |
| CCOC(=O)c1cnc2ccc(Br)cc2c1Nc1cccc(S(N)(=O)=O)c1 | 1620 |

Field: next compound
Specify IC50 for Cc1cc(Nc2ncc(C)c(N3CC(CC#N)C3)n2)sn1 , system UniProt Q96GD4.
6
